# Test system: IGROV1 ovarian
# measurement_description: NCI tumour cell line growth inhibition, 48 h
property_measured: GI50

CCCC(=O)O[C@]1(C)CC[C@@H]2[C@H]3[C@@H]1[C@@H]1C[C@@](C)(O)[C@H](OC)CC[C@](C)(OC(=O)[C@@H]2C)[C@H]3O1    24.9 µM
Cn1c(COC(=O)NCCc2ccccn2)nc2c(N3CCOCC3)nc(Cl)nc21    1.31 µM
O=c1[nH]c(C2CCCN2)nc2c1oc1ccc(Cl)cc12 (stereo not given)    > 100 µM
O=C(Nc1n[nH]c2cc(-c3cc(F)ccc3F)ccc12)C1CC1    > 25 µM

Please provide the recorded GI50 for OCc1ccc(N(Cc2ccc(F)cc2)Cc2ccc(F)cc2)cc1Cl , tested on IGROV1 ovarian. 2.08 µM
